// reported Emax at 30 µM per item
# system: human GLP-1R (Homo sapiens (Human), UniProt P43220)
# Sequence (P43220 24-463): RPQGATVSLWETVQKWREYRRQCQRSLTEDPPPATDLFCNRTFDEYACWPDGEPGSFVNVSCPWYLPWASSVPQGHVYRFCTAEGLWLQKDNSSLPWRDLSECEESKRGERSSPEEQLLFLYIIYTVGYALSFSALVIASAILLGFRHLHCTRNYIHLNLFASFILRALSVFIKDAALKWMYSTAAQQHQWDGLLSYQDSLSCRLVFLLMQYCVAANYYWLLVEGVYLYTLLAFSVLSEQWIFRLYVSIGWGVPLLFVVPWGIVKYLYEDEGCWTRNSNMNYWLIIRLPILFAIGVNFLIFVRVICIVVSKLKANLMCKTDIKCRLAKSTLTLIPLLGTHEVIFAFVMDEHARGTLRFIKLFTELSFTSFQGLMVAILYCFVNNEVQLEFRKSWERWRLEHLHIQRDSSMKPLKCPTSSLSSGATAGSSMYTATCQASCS
# assay details: GLP-1 assay with EX-4 synthetic agonist (calcium mobilization, EC20 EX-4)
# Format: cell-based
# condition info: 30 μM compound; EC20 of EX-4; calcium flux
# Description: B. GLP-1 Assay with EX-4 Synthetic Agonist To assess the effects of test compounds on GLP-1 or glucagon potency and efficacy, a high-throughput calcium mobilization assay was used essentially as previously described (Morris L C, Days E L, Turney M, Mi D, Lindsley C W, Weaver C D, Niswender K D, A Duplexed High-Throughput Screen to Identify Allosteric Modulators of the Glucagon-Like Peptide 1 and Glucagon Receptors. J. Biomol. Screen. 2014 Feb. 13, 19(6):847-858). […]
Remember to put the unit after the number in your answer.

Solved entries:
{"compound": "Cc1c2ccccc2n2c(C(=O)NC[C@@H]3CCCN3C(C)C)cn([C@H]3CCOC3)c(=O)c12", "system": "human GLP-1R (Homo sapiens (Human), UniProt P43220)", "endpoint": "Emax at 30 µM", "result": "50%"}
{"compound": "Cc1c2n(c3ccccc13)[C@@H](C(=O)NC[C@@H]1CCCN1C(C)C)CN(C1CCCC1)C2=O", "system": "human GLP-1R (Homo sapiens (Human), UniProt P43220)", "endpoint": "Emax at 30 µM", "result": "56%"}
{"compound": "Cc1c2n(c3ccccc13)C(C(=O)NC[C@@H]1CCCN1C(C)C)CN(C1CCCC1)C2=O (some centres unmarked)", "system": "human GLP-1R (Homo sapiens (Human), UniProt P43220)", "endpoint": "Emax at 30 µM", "result": "55%"}
{"compound": "CC(C)N1CCC[C@H]1CNC(=O)c1cn(C2CCCC2)c(=O)c2c(Cl)c3ccccc3n12", "system": "human GLP-1R (Homo sapiens (Human), UniProt P43220)", "endpoint": "Emax at 30 µM", "result": "57%"}

Fill in: Emax at 30 µM of Cc1c2ccccc2n2c(C(=O)NC[C@@H]3CCCN3C(C)C)cn(C3CCCC3)c(=O)c12 is ___
59%

Where do the numbers come from? From patent US10487087B2.
